- system.tested: T1, human Trop-2-His protein (human, UniProt P09758 27-274)
- T1 construct: extracellular domain; Assay paragraphs say only 'Trop-2-His'; also called hTrop-2; Kactus Cat #TRP-HM121; not shown: His tag
- T1 sequence (looked up): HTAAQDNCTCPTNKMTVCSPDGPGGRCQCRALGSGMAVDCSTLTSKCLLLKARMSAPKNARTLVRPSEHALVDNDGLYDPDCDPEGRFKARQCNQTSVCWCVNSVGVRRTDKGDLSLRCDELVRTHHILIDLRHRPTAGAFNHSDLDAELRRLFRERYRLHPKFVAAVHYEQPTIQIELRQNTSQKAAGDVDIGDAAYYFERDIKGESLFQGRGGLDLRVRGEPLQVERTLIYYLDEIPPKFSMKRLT
- experiment: BLI (Gator Prime), LEM supernatant Ab on HFC probe
- Method: After three times of regeneration and neutralization of HFC probe (Gator, Cat #160003), LEM transfection supernatant samples to be tested in K buffer was diluted 1:1 in K buffer and immobilized onto HFC probe. […] The association and dissociation of human or cynomolgus Trop-2-His antigen from antibody was measured on BLI machine Gator Prime. Affinity was calculated using Gator Bio analysis software. Blank control was used for reference subtraction. […]
property: kon (M⁻¹ s⁻¹)
The response must be a number in M⁻¹ s⁻¹ with no trailing unit.

72F12 (antibody, V domains shown, Rabbit-derived clone; LEM construct: VH + rabbit IgG CH1 + human IgG1 CH2-CH3) VH: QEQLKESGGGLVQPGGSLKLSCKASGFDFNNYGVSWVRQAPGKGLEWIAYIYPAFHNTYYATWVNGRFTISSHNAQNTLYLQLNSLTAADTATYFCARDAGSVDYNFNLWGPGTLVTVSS VL: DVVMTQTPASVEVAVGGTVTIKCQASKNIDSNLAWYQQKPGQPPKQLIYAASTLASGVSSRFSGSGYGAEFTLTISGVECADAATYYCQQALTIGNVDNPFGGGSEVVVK = 666000
70E2 (antibody, V domains shown, Rabbit-derived clone; LEM construct: VH + rabbit IgG CH1 + human IgG1 CH2-CH3) VH: QSLEESGGGLVKPGGTLTLTCTVSGFDFSNYAMTWVRQAPGKGLEYIGFIGIRGNIYYANWAKGRFTISKTSSTTVTLQMTSLTVADTATYFCARGGLWTGNSYFDLWGPGTLVTVSS VL: YDMTQTPASVEVPVGGTVTINCQASENINRYLAWYQQKPGQPPKPLIYRAATLASGVPSRFKGSGSGTEYTLSISDLECADAATYYCQQGYGYSTVGNAFGGGTEVVVK = 430000
8H2 (antibody, V domains shown, Rabbit-derived clone; LEM construct: VH + rabbit IgG CH1 + human IgG1 CH2-CH3) VH: QSLEESGGDLVQPGASLTLTCKASGFDLNNYAMLWVRQAPGKGLEWIGCIYISGGTTYFASWATGRFAISKTSSTTVTLQMTSLTAADTATYFCARDDGSTSYYLNLWGPGTLVTVSS VL: YDMTQTPASVSAAVGGTVTIKCQASEDIYSLLAWYQQKPGQPPKLLIYDASDLASGVPSRFKGSGSGTEYTLTISALECDDAATYYCQQAYTIGNIDNTFGGGTEVVVK = 423000
10D3 (antibody, V domains shown, Rabbit-derived clone; LEM construct: VH + rabbit IgG CH1 + human IgG1 CH2-CH3) VH: QSLEESGGDLVQPGASLTLTCKAAGFDLNNYSMLWVRQAPGKGLEWIGCIYISGGTTYYASWAKGRFTISKTSSTTVTLQMTSLTAADTATYFCARDDGSTSYYLNLWGPGTLVTVSS VL: YDMTQTPASVSEPVGGTVTIKCQASEDIYRLLAWYQQKPGQPPKLLIYDASDLASGVPSRFKGSGSGTEYTLTISGLQCADAATYYCQQGYTIGNIDNSFGGGTEVVVK = 339000

Quick check: kon of 73C2 (antibody, V domains shown, Rabbit-derived clone; LEM construct: VH + rabbit IgG CH1 + human IgG1 CH2-CH3) VH: QSLEESGGGLVKPGGTLTLTCTVSGFDFSNYAVTWVRQAPGEGLEYIGFVGIYGDFYYANWAKGRFTISKTSSTTVTLQMPSLTVADTATYFCARGGLWTGNSYFDLWGPGTLVTVSS VL: YDMTQTPASVEVAVGGTVTINCQASESINRYLAWYQQKRGQPPKPLIYRAATLASGVPSRFKGSGSGTEYTLTISDLECADAATYYCQQGYGYSTVGNAFGGGTEVVVK ?
284000
